Target: Untagged CRBN-DDB1 complex (Homo sapiens (Human), UniProt Q96SW2)
Sequence (Q96SW2 whole entry): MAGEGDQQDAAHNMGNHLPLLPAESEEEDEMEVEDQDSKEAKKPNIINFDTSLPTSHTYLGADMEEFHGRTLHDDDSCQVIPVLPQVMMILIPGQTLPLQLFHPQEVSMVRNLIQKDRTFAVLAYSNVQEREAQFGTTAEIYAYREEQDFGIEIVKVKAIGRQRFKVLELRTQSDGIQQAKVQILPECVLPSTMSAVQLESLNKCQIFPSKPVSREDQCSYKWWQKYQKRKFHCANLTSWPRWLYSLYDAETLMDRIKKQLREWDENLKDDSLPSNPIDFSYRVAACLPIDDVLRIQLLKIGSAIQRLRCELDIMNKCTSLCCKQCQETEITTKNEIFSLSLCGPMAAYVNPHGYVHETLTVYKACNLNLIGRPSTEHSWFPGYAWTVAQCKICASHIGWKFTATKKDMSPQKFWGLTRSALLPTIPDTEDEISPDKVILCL
Sequence (Q16531 whole entry partner): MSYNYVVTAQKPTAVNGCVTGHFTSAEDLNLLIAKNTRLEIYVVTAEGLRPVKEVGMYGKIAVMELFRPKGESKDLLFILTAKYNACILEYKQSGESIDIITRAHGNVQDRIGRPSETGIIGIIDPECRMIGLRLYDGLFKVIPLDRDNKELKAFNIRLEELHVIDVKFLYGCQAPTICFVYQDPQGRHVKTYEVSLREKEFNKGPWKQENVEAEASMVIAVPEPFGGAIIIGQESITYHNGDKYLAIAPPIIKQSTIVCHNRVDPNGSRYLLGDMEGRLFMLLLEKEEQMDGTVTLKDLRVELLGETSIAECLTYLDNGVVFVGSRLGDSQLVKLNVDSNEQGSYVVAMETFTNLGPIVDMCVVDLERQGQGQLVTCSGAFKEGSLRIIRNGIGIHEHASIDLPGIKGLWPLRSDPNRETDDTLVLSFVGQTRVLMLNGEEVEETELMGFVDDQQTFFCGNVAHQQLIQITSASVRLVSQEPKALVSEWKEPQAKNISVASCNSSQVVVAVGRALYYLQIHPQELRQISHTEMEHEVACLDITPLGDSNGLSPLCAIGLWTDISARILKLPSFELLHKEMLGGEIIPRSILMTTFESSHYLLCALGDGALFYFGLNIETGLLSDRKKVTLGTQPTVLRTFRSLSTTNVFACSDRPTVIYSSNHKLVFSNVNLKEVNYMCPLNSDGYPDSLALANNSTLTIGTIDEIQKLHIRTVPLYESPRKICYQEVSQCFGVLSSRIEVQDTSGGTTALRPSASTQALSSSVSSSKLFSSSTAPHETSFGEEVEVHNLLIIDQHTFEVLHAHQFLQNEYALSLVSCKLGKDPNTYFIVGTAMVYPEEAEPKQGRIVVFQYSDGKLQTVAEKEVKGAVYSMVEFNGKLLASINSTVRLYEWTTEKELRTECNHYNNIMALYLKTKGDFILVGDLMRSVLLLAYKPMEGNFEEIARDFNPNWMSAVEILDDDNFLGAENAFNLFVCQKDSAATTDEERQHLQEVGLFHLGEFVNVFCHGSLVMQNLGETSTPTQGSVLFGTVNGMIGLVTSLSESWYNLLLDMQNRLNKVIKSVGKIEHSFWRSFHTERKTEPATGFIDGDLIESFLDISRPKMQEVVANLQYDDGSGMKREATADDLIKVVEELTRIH
Test: Fluorescence Polarization (FP) assay, displacement of Cy5-labeled thalidomide
Conditions: untagged CRBN-DDB1 50 nM, Cy5-labeled thalidomide 20 nM, 10 min room temperature
Description: The final solution contained 50 mM HEPES, 200 mM NaCl and 2 mM DTT, pH 7.5. The mixtures were incubated at room temperature for 10 min. The FP signals were recorded on an EnVision plate reader (Perkin Elmer) using the following settings: Excitation Light (%): 100; Measurement Height: 12; G-Factor: 1; Detector Gain 1: 500; Detector Gain 2: 500; Flash Number: 100. […]
pIC50: −log10 of the molar value.
measuredProperty: pIC50

Entry O=C1CCC(N2C(=O)Cc3ccccc32)C(=O)N1 (stereo not shown) , system Untagged CRBN-DDB1 complex (Homo sapiens (Human), UniProt Q96SW2): what pIC50 was measured? < 4.00

====

Molecular target: His-tagged CRBN-DDB1 complex (Homo sapiens (Human), UniProt Q96SW2)
Sequence (Q96SW2 whole entry): as the sequence (Q96SW2 whole entry) above
Sequence (Q16531 whole entry partner): as the sequence (Q16531 whole entry partner) above
Experiment: Time-Resolved Fluorescence Resonance Energy Transfer (TR-FRET) assay, displacement of Cy5-labeled thalidomide
Conditions: read-out: CRBN HTRF IC50
Description: The mixture were incubated at room temperature for 1 hour. […] Quantitative loss of FRET efficiency as a function of compound concentrations was fitted by a four-parameter Logistic Function using GraphPad Prism 7.0 and the IC50 values were reported for each compound.
measuredProperty: IC50

Cn1c(=O)n(C2CCC(=O)NC2=O)c2ccc(CNC(N)=O)cc21 (centres unmarked) [Compound I-74] : < 1000 nM
CC(=O)Nc1ccc2c(c1)n(C)c(=O)n2C1CCC(=O)NC1=O (centres unmarked) [Compound I-62] : < 1000 nM
Cn1c(=O)n(C2CCC(=O)NC2=O)c2ccc(CN)cc21 (centres unmarked) [Compound I-64] : < 1000 nM
CC(C)(C)OC(=O)NCCOCCOCCOCCOCCCc1ccc([C@H]2CN(C3CCC(=O)NC3=O)C(=O)O2)cc1 (some centres unmarked) [Compound I-83] : < 1000 nM
CC(=O)NCc1ccc2c(c1)n(C)c(=O)n2C1CCC(=O)NC1=O (centres unmarked) [Compound I-66] : < 1000 nM

Record IC50 for all entries; do not skip any.
1. CNC(=O)c1ccc2c(c1)n(C)c(=O)n2C1CCC(=O)NC1=O (centres unmarked) [Compound I-70]
2. Cn1c(=O)n(C2CCC(=O)NC2=O)c2ccc(-c3cn(CCOCCOCCOCCNC(=O)OC(C)(C)C)nn3)cc21 (centres unmarked) [Compound I-82]
3. Cn1c(=O)n(C2CCC(=O)NC2=O)c2cccc(C#CCOCCOCCNC(=O)OC(C)(C)C)c21 (centres unmarked) [Compound I-86]
4. CNc1ccc2c(c1)n(C)c(=O)n2C1CCC(=O)NC1=O (centres unmarked) [Compound I-68]
5. CC(C)(C)OC(=O)NCCOCCOCCOCCOCC#Cc1ccc([C@H]2CN([C@H]3CCC(=O)NC3=O)C(=O)O2)cc1 [Compound I-77]

1: 1000 to 10000 nM; 2: < 1000 nM; 3: < 1000 nM; 4: < 1000 nM; 5: < 1000 nM

Fill in IC50 for each of the 7 molecules listed.
1. Cc1cc(-c2ccc3c(c2)n(C)c(=O)n3C2CCC(=O)NC2=O)n[nH]1 (centres unmarked) [Compound I-79]
2. CN(C)Cc1ccc2c(c1)n(C)c(=O)n2C1CCC(=O)NC1=O (centres unmarked) [Compound I-61]
3. CCNC(=O)Nc1ccc2c(c1)n(C)c(=O)n2C1CCC(=O)NC1=O (centres unmarked) [Compound I-67]
4. Cn1c(=O)n(C2CCC(=O)NC2=O)c2ccc(C(N)=O)cc21 (centres unmarked) [Compound I-90]
5. Cc1nc(-c2ccc3c(c2)n(C)c(=O)n3C2CCC(=O)NC2=O)c[nH]1 (centres unmarked) [Compound I-80]
6. O=C1CCC(N2C[C@H](c3cccc(Br)c3)OC2=O)C(=O)N1 (single isomer, unassigned) [Compound I-84]
7. Cn1c(=O)n(C2CCC(=O)NC2=O)c2cccc([N+](=O)[O-])c21 (centres unmarked) [Compound I-75]

1. < 1000 nM
2. 1000 to 10000 nM
3. < 1000 nM
4. > 100000 nM
5. < 1000 nM
6. < 1000 nM
7. < 1000 nM
